Data credit: the supplement of paper PMC6555819

Assignment: determine reported PBM binding z-score for the given sequences.
- Tested on: PPARg DBDmut:RXRa IVT, anti-PPARg (DBD mutation: PPARg1 K132A/R137A, NR concentration 270 nM, RXRa partner concentration 90 nM)
- Assay Explanation: PBM binding z-score (relative to random genomic background probes); higher = stronger binding; sequences stand for … in GC…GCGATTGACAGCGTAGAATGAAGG

Qu. Which PBM binding z-score reading was recorded for the sequence `GATACAGGGTGAAGGCCAGAGTACGCGTATTGAT` ?
Ans. -0.37

Qu. Check `CCTGCTAGTTCATGGTCAGCTAATCTACAGTATG` too.
Ans. -0.434

Qu. Request: `CGTCAAAGTTCAAGGTTACGTAACAGAAAGCAGC`
Ans. 1.55

Qu. Next sequence up: `TGAATGAGGTGAAAGATCAGGGAACGTGGCGTCG`
Ans. 2.22

Qu. For `ATATGTAGGTTACATCCGGGTCATTCTGGCTATG` then?
Ans. 2.61

Qu. Same again, this time with `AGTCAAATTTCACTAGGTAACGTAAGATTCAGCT`
Ans. 0.835
